Each entry below carries its reported pKd.
Target: S1 variant B.1.1.7: UK (Acro) spike protein (SARS-CoV-2, UniProt P0DTC2 16-1213)
Assay: SPR (Carterra LSA); […]; 1:1 model; […]
# reply with the number alone; pKd is -log10 of concentration in mol/L

INSERT INTO results (binder, val) VALUES
  ('Antibody 1-1 (Fc fusion) EVQLVESGGGLVQPGGSLRLSCAASGSIGSINAMGWFRQAPGKEREWVAGISNGGTTNYADSVKGRFTISADNSKNTAYLQMNSLKPEDTAVYYCAADGVPEYSDYASGPVWGQGTLVTVSS', 9.06),
  ('Antibody 1-16 (Fc fusion) EVQLVESGGGLVQPGGSLRLSCAASGRTYAMGWFRQAPGKERELVAEITAGGSTYYADSVKGRFTISADNSKNTAYLQMNSLKQEDTAVYYCAVDGPFGWGQGTLVTVSS', 8.97),
  ('Antibody 1-7 (Fc fusion) EVQLVESGGGLVQPGGSLRLSCAASGGTFSSIGMGWFRQAPGKEREFVAAISWDGGATAYADSVKGRFTISADNSKNTVYLQMNSLKPEDTAVYYCAKEDVGKPFDWGQGTLVTVSS', 8.95),
  ('Antibody 1-13 (Fc fusion) EVQLVESGGGLVQPGGSLRLSCAASGRTTFSSYTMGWFRQAPGKEREFVASITRSGVLNYADSVKGRFTISADNSKNTAYLQMNSLKPEDTAVYYCAKEDVGKPFDWGQGTLVTVSS', 8.29),
  ('Antibody 1-10 (Fc fusion) EVQLVESGGGLVQPGSSLRLSCAASGGTFSSIGMGWFRQAPGKEREFVAAISWDGGATAYADSVKGRFTISADNSKNTAYLQMNSLKPEDTAVYYCAKEDVGKPFDWGQGTLVTVSS', 9.32);

Now consider a different binder.
get_value(item= Antibody 1-15 (Fc fusion) EVQLVESGGGLVQPGGSLRLSCAASGGIFSDMFMGWFRQAPGKEREFVATIDWSGDTAFYADSVKGRFTISADNSKNTAYLQMNSLKPEDTAVYYCAVDLSGDAVYDWGQGTLVTVSS , readout=pKd) returns 9.08

Entry source: patent US20230192819A1
